Where do the numbers come from? From patent US20260176279A1.

# TARGET_SYSTEM: B-Raf kinase (Homo sapiens, UniProt P15056)
# Construct: GST (N); purchased Sigma
# Sequence (P15056 416-766): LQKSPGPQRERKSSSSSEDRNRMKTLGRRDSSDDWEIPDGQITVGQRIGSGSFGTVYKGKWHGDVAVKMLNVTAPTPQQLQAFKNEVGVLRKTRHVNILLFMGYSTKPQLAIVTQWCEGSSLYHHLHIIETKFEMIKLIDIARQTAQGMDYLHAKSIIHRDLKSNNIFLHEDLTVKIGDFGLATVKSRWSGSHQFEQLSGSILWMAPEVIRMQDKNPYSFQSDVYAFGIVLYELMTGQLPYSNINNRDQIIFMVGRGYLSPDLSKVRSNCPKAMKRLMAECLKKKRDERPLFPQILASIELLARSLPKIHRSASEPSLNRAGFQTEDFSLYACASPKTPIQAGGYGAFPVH
# PROTOCOL_NOTES: Biochemical Assay for B-Raf (coupled pyruvate kinase/lactate dehydrogenase assay)
# MEASUREMENT_PARAMETERS: Table 3; read-out: BRAF IC50
The following compounds are listed with their measured IC50 values.
QUANTITY_MEASURED: IC50

1. CNc1cc(-c2cc(-c3cc(NC(=O)Nc4ccc(C(F)(F)F)nc4)ccc3C)cc(OCCO)n2)ccn1; 100 to 500 nM
2. CC(=O)Nc1cc(-c2cc(-c3cc(NC(=O)Nc4ccc(C(F)(F)F)nc4)ccc3C)cn(C)c2=O)ccn1; < 100 nM
3. CNC(=O)c1cc(-c2cc(-c3cc(NC(=O)Nc4ccc(C(F)(F)F)nc4)ccc3C)ccn2)ccn1; 100 to 500 nM
4. Cc1ccc(NC(=O)Nc2ccc(C(F)(F)F)nc2)cc1-c1ccnc(N2CCOCC2)c1; 100 to 500 nM
5. Cc1ccc(NC(=O)Nc2ccc(C(F)(F)F)nc2)cc1-c1ccnc(-c2ccnc(NC(=O)CN(C)C)c2)c1; < 100 nM
6. CNc1cc(-c2cc(-c3cc(NC(=O)Nc4ccc(C(F)(F)F)nc4)ccc3C)ccn2)ccn1; < 100 nM
7. Cc1ccc(NC(=O)Nc2ccc(C(F)(F)F)nc2)cc1-c1cc(OC[C@@H](C)O)nc(N2CCOCC2)c1; 100 to 500 nM
8. Cc1ccc(NC(=O)Nc2cnc(C(F)(F)F)nc2)cc1-c1cc(OCCO)nc(N2CCOCC2)c1; 100 to 500 nM
9. Cc1ccc(NC(=O)Nc2ccc(C(F)(F)F)nc2)cc1-c1cc(N2CCOCC2)nc(N2CCC(O)CC2)n1; 100 to 500 nM
10. Cc1ccc(NC(=O)Nc2ccc(C(F)(F)F)nc2)cc1-c1cc(OC[C@H](C)O)nc(N2CCOCC2)c1; 100 to 500 nM
11. CC(=O)Nc1cc(-c2cc(-c3cc(NC(=O)Nc4ccc(C(F)(F)F)nc4)ccc3C)ccn2)ccn1; < 100 nM
